Listing of entries alongside the reported growth inhibition.
assay: NCI Yeast Anticancer Drug Screen. Data for the sgs1 mgt1 strain (AID 161);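 further: 0% = growth of cultures given vehicle only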; conditions: S. cerevisiae sgs1 mgt1 strain, at 50.0 µM (retest, dose inferred, filed as 5.0), active compounds read high
Compounds without any hit were thinned out: in the full panel of roughly 79,000, 15% have a hit.
Response body: numeric value in %, unit text excluded.

Here's what some known entries look like.
molecule	unit info	growth inhibition
OC(CCNCc1ccccc1)c1ccc2ccccc2c1 (configuration not stated)	%	93
CCCC(O)C1CC(C(C)C)CCC1C (configuration not stated)	%	33
O=[N+]([O-])c1ccc2c(c1)/C(=N/N=C1c3ccccc3Cc3ccccc31)c1cc([N+](=O)[O-])cc([N+](=O)[O-])c1-2	%	98
C[CH2][Sn]([CH2]C)([O]C(=O)C(N)Cc1ccccc1)[O]C(=O)C(N)Cc1ccccc1 (configuration not stated)	%	59
Cc1cc(NCCCCCCCCNc2cc(C)nc3cc(N)ccc23)c2ccc(N)cc2n1	%	99
COc1cccc2c1C(=O)c1c(O)c3c(c(O)c1C2=O)C[C@@](O)(C(C)=O)C[C@@H]3OC1CC(OC(C)=O)C(OC(C)=O)C(C)O1 (some centres not stated)	%	96
CCCCN(CCCC)CCC(O)c1cc2c(Cl)cc(Cl)cc2c2cc(C(F)(F)F)ccc12 (configuration not stated)	%	97
CN(C)CCNC(=O)c1cccc2cc([N+](=O)[O-])ccc12	%	68

Entry under test: CCCCC/C(=C(\C#N)C(=O)OCC)c1ccccc1 . Its growth inhibition was 33

Entry under test: CSc1nc(C)c(CCOC(C)=O)c(N=P(c2ccccc2)(c2ccccc2)c2ccccc2)n1 . Its growth inhibition was 22

* * *

assay: NCI Yeast Anticancer Drug Screen. Data for the CLN2oe strain (AID 163);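 further: 0% = growth of vehicle-only control cultures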; conditions: S. cerevisiae CLN2oe strain, at 3.7 µM, active compounds read high
Compounds without any hit were thinned out: in the full panel of roughly 79,000, 15% have a hit.
reported endpoint: growth inhibition (%)
Response body: numeric value in %, unit text excluded.

Here's what some known entries look like.
molecule	unit info	reading
CCCCCOC(=S)SC(=O)OCC	%	-6
Cc1cc(=O)oc2c(C)c3occc(=O)c3cc12	%	-1
C/C(=N\Nc1ccc([N+](=O)[O-])cc1[N+](=O)[O-])c1sc(-n2nc(-c3ccccc3)cc2-c2ccccc2)nc1C	%	12
C=C1CC(CCCl)(c2ccccc2)OC1=O (centres undefined)	%	7
CCCC(=O)Oc1c(C)cc([N+](=O)[O-])cc1[N+](=O)[O-]	%	-2

Entry under test: O=c1nc2n(Cc3ccccc3)c3ccccc3nc-2c(=O)[nH]1 . Its growth inhibition was -7

Entry under test: CCCC/C([O-])=C1/C(=O)N(c2ccccc2)N=C1C.CCCC/C([O-])=C1/C(=O)N(c2ccccc2)N=C1C.[Cu+2] . Its growth inhibition was -2

Entry under test: CCOc1ccc(NC(=O)C2=C(C)NC(C)=C(C(=O)Nc3ccc(OCC)cc3)C2c2cccc([N+](=O)[O-])c2)cc1 . Its growth inhibition was -2

Entry under test: O=C(COC(=O)c1ccccc1)c1ccc(Br)cc1 . Its growth inhibition was 13

* * *

test: NCI Yeast Anticancer Drug Screen. Data for the rad18 strain (AID 177); conditions: S. cerevisiae rad18 mutant growth inhibition; at 3.7 µM; active compounds read high
Compounds without any hit were thinned out: in the full panel of roughly 79,000, 15% have a hit.
Label Y for high-side growth inhibition (at or above 20%) and N for low-side growth inhibition (below it).

NC(N)=NS(=O)(=O)c1ccc(Nc2c3ccccc3nc3c(C(=O)NCCO)cccc23)cc1 N
c1ccc(Cc2cc(-c3ccccc3)n[nH]2)cc1 N
COc1ccc(/C=C2\NC(=S)N(/C=C3\C(=O)Oc4ccccc4C3=O)C2=O)cc1 N
CC(C)(C)C1=CC(=CC=C2C=CN(CCCCCCCCCCCO)C=C2)C=C(C(C)(C)C)C1=O Y

Shift focus to the following entry.
Would you say O=C(CSC(=S)N1CCCCC1)Nc1nc2c(s1)CCCC2 shows growth inhibition at minimum 20%?
N

* * *

Listing of entries alongside the reported growth inhibition.
assay: NCI Yeast Anticancer Drug Screen. Data for the cln2 rad14 strain (AID 165);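 further: 0% = growth equal to vehicle treated cultures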; settings: S. cerevisiae cln2 rad14 strain, at 50.0 µM (retest, dose inferred, filed as 5.0), active compounds read high
This is part of a sample that, as a whole, favours compounds with a hit. Of some 79,000 tested, about 15% had one in any assay.
Response body: numeric value in %, unit text excluded.

Entry under test: CN(C)CCCCN1c2ccccc2Sc2ccc(N=[N+]=[N-])cc21 . Its growth inhibition was 99

* * *

Listing of entries alongside the reported growth inhibition.
test: NCI Yeast Anticancer Drug Screen. Data for the rad52 strain (AID 147);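 further: 0% = growth of vehicle-treated control cultures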; details: S. cerevisiae rad52 mutant growth inhibition; at 3.7 µM; active compounds read high
This is part of a sample that, as a whole, favours compounds with a hit. Of some 79,000 tested, about 15% had one in any assay.
Response body: numeric value in %, unit text excluded.

Here's what some known entries look like.
compound	reported endpoint	unit info	reading
CCN(CC)CCN(C)CCc1ccc(Br)cc1	growth inhibition	%	19
O=C1NC(SSC2=NNC3(C(=O)N2)c2ccccc2-c2ccccc23)=NNC12c1ccccc1-c1ccccc12	growth inhibition	%	-1
C[C@]12CC[C@H](O)CC1=CC[C@@H]1C2CC[C@]2(C)C(=O)NC(=O)CC12 (stereo partly drawn)	growth inhibition	%	-23
CCOC(=O)c1[nH]cc(C)c1-c1cccn1-c1ccc(Cl)cc1[N+](=O)[O-]	growth inhibition	%	19
Cc1cc(NCCCCCCCCNc2cc(C)nc3cc(N)ccc23)c2ccc(N)cc2n1	growth inhibition	%	-45

Entry under test: S=c1[nH]c2cc3ccccc3cc2[nH]1 . Its growth inhibition was -46

* * *

Listing of entries alongside the reported growth inhibition.
assay: NCI Yeast Anticancer Drug Screen. Data for the mlh1 strain (AID 171);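 further: 0% = growth of vehicle-treated control cultures of the same strain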; settings: S. cerevisiae mlh1 strain growth inhibition; at 100.0 µM; active compounds read high
Compounds without any hit were thinned out: in the full panel of roughly 79,000, 15% have a hit.
Response body: numeric value in %, unit text excluded.

Here's what some known entries look like.
molecule	growth inhibition / %
CCO/C(C)=C(/C#N)C(N)=S	0
C(=Nc1ccc(-c2cc(-c3ccccc3)nc3ccc4ccccc4c23)cc1)c1ccccc1	9
COC1=C(OC)C(=O)C(Sc2ccc3ccccc3c2)=CC1=O	95
Cc1ccc2nc(-c3cccc([N+](=O)[O-])c3)oc(=O)c2c1	-14

Entry under test: CN(C)/C=C/c1nnc([N+](=O)[O-])s1 . Its growth inhibition was 99

Entry under test: O=C(O)Cc1cc(F)ccc1C(=O)O . Its growth inhibition was 76

Entry under test: Cc1cc2c3ccccc3c3ccccc3c2nn1 . Its growth inhibition was -3

Entry under test: O=C(/C=C\c1cccc(C(F)(F)F)c1)c1ccccc1 . Its growth inhibition was -1

Entry under test: C#CCN(Cc1ccc2nc(N)[nH]c(=O)c2c1)c1ccc(C(=O)NC(CCC(=O)O)C(=O)O)cc1 (stereo not given) . Its growth inhibition was 55

Entry under test: OCc1ccccc1Cc1ccccc1 . Its growth inhibition was -3

Entry under test: COC(C(O)CO)C(O)C(O)C(=O)NNc1ccccc1 (stereo not given) . Its growth inhibition was 97

Entry under test: CC(=O)OCC1OC2OC(=O)NC2C(OC(C)=O)C1OC(C)=O (stereo not given) . Its growth inhibition was 0

* * *

experiment: NCI Yeast Anticancer Drug Screen. Data for the CLN2oe strain (AID 163);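 further: 0% = growth of vehicle-only control cultures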; conditions: S. cerevisiae CLN2oe strain, at 1.2 µM, active compounds read high
About 79,000 compounds went through this panel and 15% of them were active in at least one assay; those are over-represented in the sample as a whole. Calls of active or inactive are those of the source. Rule as the data show it: active = growth inhibition above about 70%; inactive = the rest.
reported endpoint: growth inhibition

compound	growth inhibition
Cc1cccc(/C=N/NC(=S)N2CCCC2)n1	-30% (inactive)

Entry under test: O=C1NC(SSC2=NNC3(C(=O)N2)c2ccccc2-c2ccccc23)=NNC12c1ccccc1-c1ccccc12 . Its growth inhibition was 4% (inactive)

Entry under test: O=C(C[n+]1ccc2ccccc2c1)c1ccc2ccccc2c1 . Its growth inhibition was 8% (inactive)

Entry under test: O=C(O)c1ccccc1/C=N/N=C1c2ccccc2-c2ccccc21 . Its growth inhibition was -4% (inactive)

Entry under test: CCCC(O)C1CC(C(C)C)CCC1C (stereo unspecified) . Its growth inhibition was -3% (inactive)

Entry under test: CCc1c(Cl)c(C)cc(O)c1Cl . Its growth inhibition was -7% (inactive)

Entry under test: COc1ccc2c(c1)n([O-])c1ccccc1[n+]2=O . Its growth inhibition was -4% (inactive)

Entry under test: COC(=O)C1=C(C(=O)OC)C(C(=O)OC)C(C(=O)OC)C(C(=O)OC)(C(=O)OC)C(C(=O)OC)=C1C(=O)OC (stereo unspecified) . Its growth inhibition was -11% (inactive)

Entry under test: CC1(C)CC(=O)C(/C=N/c2nc(-c3ccccc3)cs2)=C(O)C1 . Its growth inhibition was -4% (inactive)
